Target Desc: DLG2_2, Q15700
Sequence (Q15700 189-283): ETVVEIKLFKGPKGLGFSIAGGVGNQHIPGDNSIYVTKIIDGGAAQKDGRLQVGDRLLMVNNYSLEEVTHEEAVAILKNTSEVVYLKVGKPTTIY
Test Protocol: holdup assay
Design: key: below the threshold = too weak to quantify, mostly under pKd 3.1 to 4
Study Conditions: plain residues with an end cap or a label only (N-terminal biotin on a linker: ahx)
Readout: pKd
# output: bare number, no unit

As a guide, the following entries are already answered.
Binder: YNSFLSVTTV [PDZRN3, Q9UPQ7]
pKd: 3.98
//
Binder: KDECVIATEV [DLL1, O00548]
pKd: 3.62

Query string: Requested read-out: pKd. Entry: ADENEQVSAV [RAPGEF6, Q8TEU7]
Result string: 3.57

Query string: # iterate: HSATSVHTSV [MTMR1, Q13613]
Result string: 3.88
